# Test system: Lindernia pyxidaria
# PROTOCOL: Test Example 12: herbicidal effect test by treatment during growing period in paddy field
# Format: in vivo
# SETTINGS: 120 g/10a; treatment seven days after sowing in flooded paddy pot; assessed 14 days after treatment
PROPERTY_MEASURED: Weed suppression rate (%) Lindemia pyxidaria

                                 mol_smiles     target_or_system  quantity_unit  obs_value
0  CC(C)CS(=O)(=O)n1ncn(C(=O)N(c2ccc(F)cc2F)C(C)C)c1=O  Lindernia pyxidaria              %        100
1  CC(C)N(C(=O)n1cnn(S(=O)(=O)c2cccc(F)c2)c1=O)c1c(F)c(F)cc(F)c1F  Lindernia pyxidaria              %         70
2  CC(C)N(C(=O)n1cnn(S(=O)(=O)C2CC2)c1=O)c1ccccc1F  Lindernia pyxidaria              %         90
3  CC(C)N(C(=O)n1cnn(S(=O)(=O)C2CCCCC2)c1=O)c1ccc(C#N)cc1Cl  Lindernia pyxidaria              %         80
4  CN(C(=O)n1cnn(S(=O)(=O)c2ccc(Cl)cc2)c1=O)c1ccc(F)cc1F  Lindernia pyxidaria              %         70
5  CC(C)N(C(=O)n1cnn(S(=O)(=O)C2CCOCC2)c1=O)c1ccc(F)cc1F  Lindernia pyxidaria              %         80
6  Cc1cc(F)ccc1N(C(=O)n1cnn(S(=O)(=O)c2cccc(Cl)c2)c1=O)C(C)C  Lindernia pyxidaria              %         80
7  CC(C)N(C(=O)n1cnn(S(=O)(=O)c2ccc(Cl)cc2)c1=O)c1cccc(F)c1F  Lindernia pyxidaria              %         80

----------
# System: Echinochloa crus-galli
# PROTOCOL: Test Example 12: herbicidal effect test by treatment during growing period in paddy field
# Assay type: in vivo
# SETTINGS: 120 g/10a; treatment seven days after sowing in flooded paddy pot; assessed 14 days after treatment
Some compounds, each annotated with its measured Weed suppression rate (%) Echinochloa crus-galli.
PROPERTY_MEASURED: Weed suppression rate (%) Echinochloa crus-galli

>>> print(df.to_string())
                                  mol_smiles  quantity_unit  obs_value
 0  Cc1cc(C)c(S(=O)(=O)n2ncn(C(=O)N(c3ccc(F)cc3C)C(C)C)c2=O)c(C)c1              %        100
 1  Cc1ccc(N(C(=O)n2cnn(S(=O)(=O)C3CCCCC3)c2=O)C(C)C)c(F)c1              %         90
 2  Cc1cc(Cl)ccc1N(C(=O)n1cnn(S(=O)(=O)N(C)C)c1=O)C(C)C              %         90
 3  CC(C)N(C(=O)n1cnn(S(=O)(=O)Cc2ccccc2)c1=O)c1ccc(F)cc1F              %         90
 4  Cc1ccc(S(=O)(=O)n2ncn(C(=O)N(c3ccc(F)cc3Cl)C(C)C)c2=O)cc1              %         90
 5  CC(C)N(C(=O)n1cnn(S(=O)(=O)c2ccc(F)cc2)c1=O)c1c(F)cccc1F              %        100
 6  CCS(=O)(=O)n1ncn(C(=O)N(c2ccc(F)cc2F)C(C)C)c1=O              %        100
 7  O=C(N(CC(F)(F)F)c1ccc(F)cc1F)n1cnn(S(=O)(=O)C2CC2)c1=O              %        100
 8  CC(C)N(C(=O)n1cnn(S(=O)(=O)c2cccs2)c1=O)c1ccc(C#N)cc1Cl              %         90
 9  CC(C)N(C(=O)n1cnn(S(=O)(=O)C(C)C)c1=O)c1ncc(Cl)cc1Cl              %         90
10  CC(C)N(Cc1ccc(F)cc1F)C(=O)n1cnn(S(=O)(=O)c2cccs2)c1=O              %        100
11  CC(C)N(C(=O)n1cnn(S(=O)(=O)c2ccc(C(C)(C)C)cc2)c1=O)c1c(F)c(F)cc(F)c1F              %        100
12  CC(C)N(C(=O)n1cnn(S(=O)(=O)c2cccc(F)c2)c1=O)c1c(F)c(F)cc(F)c1F              %         70
13  CC(C)N(C(=O)n1cnn(S(=O)(=O)c2ccc(Cl)cc2)c1=O)c1c(F)cc(F)cc1F              %        100
14  CCN(C)S(=O)(=O)n1ncn(C(=O)N(c2ccc(F)cc2F)C(C)C)c1=O              %        100
15  CC(C)N(C(=O)n1cnn(S(=O)(=O)C(C)C)c1=O)c1cccc(F)c1              %         90

----------
# System: Lindernia pyxidaria
# PROTOCOL: Test Example 12: herbicidal effect test by treatment during growing period in paddy field
# Type: in vivo
# SETTINGS: 120 g/10a; treatment seven days after sowing in flooded paddy pot; assessed 14 days after treatment
Below, each of the compounds is paired with its reported Weed suppression rate (%) Lindemia pyxidaria value.
PROPERTY_MEASURED: Weed suppression rate (%) Lindemia pyxidaria

In [3]: df
Out[3]:
                                 mol_smiles  obs_value
0  CC(C)N(C(=O)n1cnn(S(=O)(=O)N(C)C)c1=O)c1ccccc1F         80
1  CC(C)N(C(=O)n1cnn(S(C)(=O)=O)c1=O)c1cccc(F)c1         80
2  CC(C)N(C(=O)n1cnn(S(=O)(=O)c2ccccc2F)c1=O)c1ccccc1         80
3  O=C(N(CC(F)(F)F)c1ccc(F)cc1F)n1cnn(S(=O)(=O)C2CC2)c1=O        100
4  CC(C)N(C(=O)n1cnn(S(=O)(=O)N(C)C)c1=O)c1ccc(Cl)cn1         90
5  Cc1ccc(N(C(=O)n2cnn(S(=O)(=O)c3cccc(C(F)(F)F)c3)c2=O)C(C)C)c(F)c1         80
6  CC(C)N(C(=O)n1cnn(S(=O)(=O)c2ccccc2)c1=O)c1ccc(Cl)cc1         80
7  CC(C)N(C(=O)n1cnn(S(=O)(=O)C2CCCCC2)c1=O)c1ccccc1         90

----------
# reported weed suppression rate, Scirpus juncoides; entries follow
# System: Scirpus juncoides
# PROTOCOL: Test Example 2: herbicidal effect test by treatment during growing period in paddy field
# Assay type: in vivo
# SETTINGS: treatment 7 days after sowing, 120 g/10a, evaluated 14 days after treatment
PROPERTY_MEASURED: weed suppression rate, Scirpus juncoides (%)

In [3]: df
Out[3]:
                                    compound   target_or_system                         property_measured  quantity_unit  obs_value
 0  CC(C)N(C(=O)n1ncn(S(=O)(=O)N(C)C)c1=O)c1ccc(F)nc1 [Compound 1-1129]  Scirpus juncoides  weed suppression rate, Scirpus juncoides              %         90
 1  CC(C)N(C(=O)n1ncn(S(=O)(=O)C2CCCCC2)c1=O)c1ccc(C(F)(F)F)cc1F [Compound 1-323]  Scirpus juncoides  weed suppression rate, Scirpus juncoides              %         70
 2  CC(C)N(C(=O)n1ncn(S(=O)(=O)C(C)C)c1=O)c1ccc(Cl)nc1 [Compound 1-97]  Scirpus juncoides  weed suppression rate, Scirpus juncoides              %         80
 3  CC(C)N(C(=O)n1ncn(S(=O)(=O)C2CCCCC2)c1=O)c1ccc(C#N)cc1Cl [Compound 1-328]  Scirpus juncoides  weed suppression rate, Scirpus juncoides              %         90
 4  CC(C)N(C(=O)n1ncn(S(=O)(=O)N(C)C)c1=O)c1ccc(Cl)nc1 [Compound 1-1135]  Scirpus juncoides  weed suppression rate, Scirpus juncoides              %         90
 5  CC(C)N(C(=O)n1ncn(S(=O)(=O)C(C)C)c1=O)c1cccnc1F [Compound 1-241]  Scirpus juncoides  weed suppression rate, Scirpus juncoides              %         80
 6  CC(C)N(C(=O)n1ncn(S(=O)(=O)C2CC2)c1=O)c1ccc(Cl)nc1 [Compound 1-248]  Scirpus juncoides  weed suppression rate, Scirpus juncoides              %         90
 7  CC(C)N(C(=O)n1ncn(S(=O)(=O)C2CCOC2)c1=O)c1ccc(F)cc1F (racemic) [Compound 1-1161]  Scirpus juncoides  weed suppression rate, Scirpus juncoides              %         90
 8  Cc1ccc(N(C(=O)n2ncn(S(=O)(=O)C(C)C)c2=O)C(C)C)c(Cl)c1 [Compound 1-81]  Scirpus juncoides  weed suppression rate, Scirpus juncoides              %         90
 9  Cc1ccc(N(C(=O)n2ncn(S(=O)(=O)C3CCCCC3)c2=O)C(C)C)c(Cl)c1 [Compound 1-322]  Scirpus juncoides  weed suppression rate, Scirpus juncoides              %         90
10  Cc1nn(C(=O)N(c2ccc(F)cc2F)C(C)C)c(=O)n1S(=O)(=O)C1CC1 [Compound 1-257]  Scirpus juncoides  weed suppression rate, Scirpus juncoides              %         90
11  Cc1ccc(N(C(=O)n2ncn(S(=O)(=O)C3CC3)c2=O)C(C)C)c(F)c1 [Compound 1-221]  Scirpus juncoides  weed suppression rate, Scirpus juncoides              %         90
12  CC(C)N(C(=O)n1ncn(S(=O)(=O)C2CC2)c1=O)c1ccc(Cl)cc1Br [Compound 1-219]  Scirpus juncoides  weed suppression rate, Scirpus juncoides              %        100
13  CC(C)N(C(=O)n1ncn(S(=O)(=O)C2CC2)c1=O)c1cccc(F)c1 [Compound 1-170]  Scirpus juncoides  weed suppression rate, Scirpus juncoides              %         90
14  CC(C)N(C(=O)n1ncn(S(=O)(=O)C2CC2)c1=O)c1ccccc1 [Compound 1-168]  Scirpus juncoides  weed suppression rate, Scirpus juncoides              %         90
15  Cc1ccc(S(=O)(=O)n2cnn(C(=O)N(c3ccc(Cl)nc3Cl)C(C)C)c2=O)cc1 [Compound 1-690]  Scirpus juncoides  weed suppression rate, Scirpus juncoides              %         90
